measured-target: UniProtKB P31645
setup-conditions: HEK293, at 0.1 µM
readout: inhibition (%)
Numbers only, in %.

molecule="Cc1ccc(OC(CC2CNC2)c2ccc(Cl)c(Cl)c2)cc1 (configuration not stated)" readout=inhibition recorded_measurement=59
molecule="Cc1ccc(OC(CC2CNC2)c2ccc(F)c(F)c2)cc1 (configuration not stated)" readout=inhibition recorded_measurement=83
molecule="Fc1ccc(C(CC2CNC2)Oc2cccc(OC(F)(F)F)c2)cc1F (configuration not stated)" readout=inhibition recorded_measurement=83
molecule="Fc1ccc(C(CC2CNC2)Oc2cccc(Cl)c2)cc1F (configuration not stated)" readout=inhibition recorded_measurement=77
molecule="Fc1cccc(OC(CC2CNC2)c2ccc(Cl)c(F)c2)c1 (configuration not stated)" readout=inhibition recorded_measurement=98

Batch request: inhibition for each of the following molecules.
1. Fc1cc(C(CC2CNC2)Oc2ccc(Cl)cc2)ccc1Cl (configuration not stated)
2. FC(F)(F)Oc1cccc(OC(CC2CNC2)c2ccc(Cl)c(Cl)c2)c1 (configuration not stated)
3. Fc1ccccc1OC(CC1CNC1)c1ccccc1 (configuration not stated)

Return:
[65, 9, 64]

Batch request: inhibition for each of the following molecules.
1. Fc1ccc(OC(CC2CNC2)c2ccc(F)c(F)c2)cc1F (configuration not stated)
2. Fc1cc(C(CC2CNC2)Oc2cccc(Cl)c2)ccc1Cl (configuration not stated)
3. Fc1cc(C(CC2CNC2)Oc2ccccc2Cl)ccc1Cl (configuration not stated)

Return:
1. 63
2. 87
3. 82

Enquiry: Using the record for Cc1ccccc1OC(CC1CNC1)c1ccc(F)c(F)c1 (configuration not stated) , state its measured inhibition.
Return: 93

###

Could you please report measured inhibition for the items listed next?
measured-target: Sodium-dependent serotonin transporter (Homo sapiens, UniProt P31645)
Sequence (P31645 whole entry, looked up): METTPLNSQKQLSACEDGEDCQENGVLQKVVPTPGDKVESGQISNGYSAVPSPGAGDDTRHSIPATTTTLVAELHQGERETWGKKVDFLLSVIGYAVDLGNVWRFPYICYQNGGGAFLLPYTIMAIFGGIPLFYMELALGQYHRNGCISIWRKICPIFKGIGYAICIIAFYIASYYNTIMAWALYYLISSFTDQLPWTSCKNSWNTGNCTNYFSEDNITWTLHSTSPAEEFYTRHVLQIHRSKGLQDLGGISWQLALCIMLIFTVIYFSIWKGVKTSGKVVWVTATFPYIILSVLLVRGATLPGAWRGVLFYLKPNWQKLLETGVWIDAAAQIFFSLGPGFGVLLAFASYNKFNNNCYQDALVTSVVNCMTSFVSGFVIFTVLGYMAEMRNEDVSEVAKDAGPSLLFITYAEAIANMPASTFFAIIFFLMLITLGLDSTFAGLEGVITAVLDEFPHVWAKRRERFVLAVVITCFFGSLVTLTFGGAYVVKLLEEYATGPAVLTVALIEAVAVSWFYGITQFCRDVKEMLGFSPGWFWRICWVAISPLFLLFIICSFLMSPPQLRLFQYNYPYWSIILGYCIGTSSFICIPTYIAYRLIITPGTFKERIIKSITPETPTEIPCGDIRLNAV
setup-conditions: HEK293, at 0.1 µM

Example cases with answers are listed next.
compound="Fc1ccc(OC(CC2CNC2)c2ccc(Cl)c(F)c2)cc1 (stereo not given)" readout=inhibition recorded_measurement=72%
compound="FC(F)(F)Oc1ccc(OC(CC2CNC2)c2ccc(Cl)c(Cl)c2)cc1 (stereo not given)" readout=inhibition recorded_measurement=16%
compound="Fc1cc(C(CC2CNC2)Oc2ccccc2OC(F)(F)F)ccc1Cl (stereo not given)" readout=inhibition recorded_measurement=48%
compound="Fc1ccc(C(CC2CNC2)Oc2ccccc2)cc1F (stereo not given)" readout=inhibition recorded_measurement=48%
compound="Fc1cccc(OC(CC2CNC2)c2ccc(Cl)c(Cl)c2)c1 (stereo not given)" readout=inhibition recorded_measurement=26%

Batch request: inhibition for each of the following compounds.
1. Fc1cc(C(CC2CNC2)Oc2cccc(OC(F)(F)F)c2)ccc1Cl (stereo not given)
2. Cc1ccccc1OC(CC1CNC1)c1ccc2ccccc2c1 (stereo not given)
3. Fc1ccc(C(CC2CNC2)Oc2ccccc2F)cc1F (stereo not given)

Return:
1: 25%; 2: 48%; 3: 61%

Batch request: inhibition for each of the following compounds.
1. Cc1ccc(OC(CC2CNC2)c2ccc(Cl)c(F)c2)cc1 (stereo not given)
2. Fc1ccc(OC(CC2CNC2)c2ccc(F)c(F)c2)cc1 (stereo not given)
3. Clc1ccccc1OC(CC1CNC1)c1ccccc1 (stereo not given)
4. Fc1cccc(OC(CC2CNC2)c2ccc(F)c(F)c2)c1 (stereo not given)
5. Cc1cccc(OC(CC2CNC2)c2ccc(Cl)c(Cl)c2)c1 (stereo not given)
6. Clc1ccc(C(CC2CNC2)Oc2ccccc2Cl)cc1Cl (stereo not given)
7. Fc1ccc(C(CC2CNC2)Oc2ccccc2OC(F)(F)F)cc1F (stereo not given)

Return:
1: 97%; 2: 55%; 3: 100%; 4: 94%; 5: 21%; 6: 40%; 7: 19%

Batch request: inhibition for each of the following compounds.
1. Clc1ccc(C(CC2CNC2)Oc2ccccc2)cc1Cl (stereo not given)
2. Fc1ccc(C(CC2CNC2)Oc2ccc(Cl)c(Cl)c2)cc1F (stereo not given)

Return:
1: 50%; 2: 44%

###

measured-target: UniProt:P10635
Sequence (P10635 whole entry): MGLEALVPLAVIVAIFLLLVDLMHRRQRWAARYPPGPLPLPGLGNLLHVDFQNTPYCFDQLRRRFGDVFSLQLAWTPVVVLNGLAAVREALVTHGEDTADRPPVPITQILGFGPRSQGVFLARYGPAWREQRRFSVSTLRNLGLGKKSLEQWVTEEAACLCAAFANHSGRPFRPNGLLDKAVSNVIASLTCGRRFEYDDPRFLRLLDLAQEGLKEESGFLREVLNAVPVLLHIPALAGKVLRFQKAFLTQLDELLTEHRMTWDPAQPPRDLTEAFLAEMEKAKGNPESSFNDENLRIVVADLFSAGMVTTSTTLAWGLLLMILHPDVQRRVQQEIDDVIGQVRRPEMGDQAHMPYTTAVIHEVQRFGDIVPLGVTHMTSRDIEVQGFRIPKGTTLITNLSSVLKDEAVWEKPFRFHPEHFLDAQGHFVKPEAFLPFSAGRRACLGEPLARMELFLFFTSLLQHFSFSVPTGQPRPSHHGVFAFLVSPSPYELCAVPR
readout: pIC50
Answers are plain numbers, as −log10 of the molar value.

Example cases with answers are listed next.
compound="Fc1cc(C(CC2CNC2)Oc2cccc(Cl)c2)ccc1Cl (centres undefined)" recorded_measurement=6.28
compound="Fc1cccc(OC(CC2CNC2)c2ccc(Cl)c(F)c2)c1 (centres undefined)" recorded_measurement=5.40
compound="Fc1ccc(OC(CC2CNC2)c2ccc(Cl)c(F)c2)cc1 (centres undefined)" recorded_measurement=6.00

Read the next record carefully.
Enquiry: Print UniProt:P10635 pIC50 for Fc1cc(C(CC2CNC2)Oc2ccccc2F)ccc1Cl (centres undefined) .
Return: 5.06

###

// Cytochrome P450 3A4 (Homo sapiens, UniProt P08684) pIC50 records
One number for each entry, as −log10 of the molar value.

Batch request: pIC50 for each of the following compounds.
1. Fc1cc(C(CC2CNC2)Oc2cccc(Cl)c2)ccc1Cl (centres undefined)
2. Fc1cccc(OC(CC2CNC2)c2ccc(Cl)c(F)c2)c1 (centres undefined)
3. Fc1ccc(OC(CC2CNC2)c2ccc(Cl)c(F)c2)cc1 (centres undefined)

Return:
1. 6.22
2. 6.29
3. 6.40

Enquiry: Using the record for Fc1cc(C(CC2CNC2)Oc2ccccc2F)ccc1Cl (centres undefined) , state its measured pIC50.
Return: 6.15

###

// Cytochrome P450 2C9 (Homo sapiens, UniProt P11712) pIC50 records
Numbers only, as −log10 of the molar value.

molecule="Fc1ccc(OC(CC2CNC2)c2ccc(Cl)c(F)c2)cc1 (centres undefined)" readout=pIC50 recorded_measurement=5.62
molecule="Fc1cc(C(CC2CNC2)Oc2cccc(Cl)c2)ccc1Cl (centres undefined)" readout=pIC50 recorded_measurement=5.96
molecule="Fc1cc(C(CC2CNC2)Oc2ccccc2F)ccc1Cl (centres undefined)" readout=pIC50 recorded_measurement=5.66

Read the next record carefully.
Enquiry: Using the record for Fc1cccc(OC(CC2CNC2)c2ccc(Cl)c(F)c2)c1 (centres undefined) , state its measured pIC50.
Return: 5.51

###

measured-target: Sodium-dependent serotonin transporter (Homo sapiens, UniProt P31645)
setup-conditions: HEK293, at 1 µM
readout: inhibition (%)
Answers are plain numbers, in %.

Example cases with answers are listed next.
molecule="Fc1ccccc1OC(CC1CNC1)c1ccc(Cl)c(Cl)c1 (centres undefined)" measured_target="Sodium-dependent serotonin transporter (Homo sapiens, UniProt P31645)" readout=inhibition recorded_measurement=100
molecule="Fc1cc(C(CC2CNC2)Oc2ccc(Cl)cc2)ccc1Cl (centres undefined)" measured_target="Sodium-dependent serotonin transporter (Homo sapiens, UniProt P31645)" readout=inhibition recorded_measurement=100
molecule="Fc1ccc(OC(CC2CNC2)c2ccc(Cl)c(Cl)c2)cc1 (centres undefined)" measured_target="Sodium-dependent serotonin transporter (Homo sapiens, UniProt P31645)" readout=inhibition recorded_measurement=100
molecule="Cc1ccc(OC(CC2CNC2)c2ccc(Cl)c(F)c2)cc1 (centres undefined)" measured_target="Sodium-dependent serotonin transporter (Homo sapiens, UniProt P31645)" readout=inhibition recorded_measurement=100

Batch request: inhibition for each of the following molecules.
1. Fc1cc(C(CC2CNC2)Oc2ccccc2OC(F)(F)F)ccc1Cl (centres undefined)
2. Fc1cc(C(CC2CNC2)Oc2ccccc2F)ccc1Cl (centres undefined)
3. Fc1ccc(OC(CC2CNC2)c2ccc(Cl)c(Cl)c2)cc1F (centres undefined)
4. Cc1ccccc1OC(CC1CNC1)c1ccc(Cl)c(Cl)c1 (centres undefined)

Return:
1: 100; 2: 100; 3: 100; 4: 100

Batch request: inhibition for each of the following molecules.
1. Clc1ccc(OC(CC2CNC2)c2ccc(Cl)c(Cl)c2)cc1 (centres undefined)
2. Clc1ccc(C(CC2CNC2)Oc2ccccc2Cl)cc1Cl (centres undefined)
3. Cc1ccc(OC(CC2CNC2)c2ccc(Cl)c(Cl)c2)cc1 (centres undefined)
4. Fc1cc(C(CC2CNC2)Oc2cccc(Cl)c2)ccc1Cl (centres undefined)
5. Clc1ccc(OC(CC2CNC2)c2ccc(Cl)c(Cl)c2)cc1Cl (centres undefined)

Return:
1: 100; 2: 100; 3: 100; 4: 100; 5: 88

Batch request: inhibition for each of the following molecules.
1. Fc1cccc(OC(CC2CNC2)c2ccc(Cl)c(F)c2)c1 (centres undefined)
2. Clc1ccc(C(CC2CNC2)Oc2ccccc2)cc1Cl (centres undefined)
3. FC(F)(F)Oc1cccc(OC(CC2CNC2)c2ccc(Cl)c(Cl)c2)c1 (centres undefined)
4. CNCCC(Oc1ccccc1OC)c1ccccc1 (centres undefined)
5. Fc1ccc(OC(CC2CNC2)c2ccc(Cl)c(F)c2)cc1 (centres undefined)
6. Fc1cccc(OC(CC2CNC2)c2ccc(Cl)c(Cl)c2)c1 (centres undefined)
7. Fc1cc(C(CC2CNC2)Oc2cccc(OC(F)(F)F)c2)ccc1Cl (centres undefined)

Return:
1: 100; 2: 100; 3: 77; 4: 43; 5: 100; 6: 100; 7: 97

Batch request: inhibition for each of the following molecules.
1. Cc1cccc(OC(CC2CNC2)c2ccc(Cl)c(Cl)c2)c1 (centres undefined)
2. FC(F)(F)Oc1ccccc1OC(CC1CNC1)c1ccc(Cl)c(Cl)c1 (centres undefined)

Return:
[100, 93]

Batch request: inhibition for each of the following molecules.
1. Cc1ccccc1OC(CC1CNC1)c1ccc(Cl)c(F)c1 (centres undefined)
2. FC(F)(F)Oc1ccc(OC(CC2CNC2)c2ccc(Cl)c(Cl)c2)cc1 (centres undefined)

Return:
1. 100
2. 98

Values were extracted from ChEMBL document CHEMBL3352322.
